// each record: one item and its pIC50 for Human 5-HT4 receptor (5-HT4b) (Homo sapiens, UniProt Q13639)
pIC50: −log10 of the molar value.

{"compound": "CC(=O)N1CC[C@H](CN2CC[C@H](Cc3nc(-n4nc(C(C)C)c5cccc(F)c54)no3)C2)C1", "subject.of.test": "Human 5-HT4 receptor (5-HT4b) (Homo sapiens, UniProt Q13639)", "pIC50": "> 7.70"}

For the compound `COCCN(C1CCOCC1)[C@H]1C[C@H](c2nc(-n3nc(C(C)C)c4cccc(F)c43)no2)C1` , what pIC50 is on record?
7.56

Item under review: CC(C)c1nn(-c2noc(C3CC(NCCC4CCCOC4)C3)n2)c2c(F)cccc12 (stereo not shown) . Reported pIC50?
> 7.70

GET /values?readout=pIC50&item= `CC(C)c1nn(-c2noc(C[C@H]3CCN(CC4CN(C(=O)CO)C4)C3)n2)c2c(F)cccc12`
> 7.70

###

# subject.of.test: 5-HT4 receptor (Cavia porcellus)
# Construct: striatum was isolated which was cryopreserved at −80° C. until use; from tissue; host or cells: guinea pig (Slc-Hartley) striatum membranes
# procedure.summary: Test Example 3: Guinea pig 5-HT4 receptor binding assay, [3H]-GR113808, striatum membranes (Table 98)
# assay.conditions: Guinea pig 5-HT4 receptor binding assay, [3H]-GR113808, striatum membranes; mean value of each group; read-out: IC50
Where a name gives a salt, the structure may show the parent alone.
measured.endpoint: IC50 (nM)
The answer is to be given in nM; state only the numeric part.

Please review the following examples before continuing.
{"compound": "Cc1ccc2c(C(C)C)nn(-c3noc(C4CCN(CC5CCOCC5)CC4)n3)c2c1 [Example 436, trifluoroacetate]", "IC50 (nM)": 179}
{"compound": "CCc1nn(-c2noc(C3CCN(CC4CN(C(=O)COC)C4)CC3)n2)c2c(F)c(F)ccc12 [Example 469, trifluoroacetate]", "IC50 (nM)": 20.4}
{"compound": "CC(=O)N1CCC(N2CCC(c3nc(-n4nc(C(C)C)c5c(C)cccc54)no3)CC2)CC1 [Example 408]", "IC50 (nM)": 29.5}
{"compound": "CCc1nn(-c2noc(C3CCN(CC4CCOCC4)CC3)n2)c2cc(C)ccc12 [Example 435, trifluoroacetate]", "IC50 (nM)": 44.7}

Now consider the entry below.
Param item = CC(=O)N1CCC(N2CCC(c3nc(-n4nc(C(C)C)c5ccccc54)no3)CC2)CC1 [Example 458, trifluoroacetate] ; retrieve measured IC50.
66

###

# subject.of.test: 5-HT4 receptor (Cavia porcellus)
# Construct: striatum was isolated which was cryopreserved at −80° C. until use; from tissue; host or cells: guinea pig (Slc-Hartley) striatum membranes
# procedure.summary: Test Example 3: Guinea pig 5-HT4 receptor binding assay, [3H]-GR113808, striatum membranes (Table 98)
# assay.conditions: Guinea pig 5-HT4 receptor binding assay, [3H]-GR113808, striatum membranes; mean value of each group; read-out: IC50
Counter-ions that a name gives are not always drawn.
pIC50 listing for selected compounds.
Just so you know, pIC50 here is -log10 of the concentration in molar units; reply with that number alone.

{"compound": "CC(=O)N1CCC(CN2CCC(c3nc(-n4nc(C(C)C)c5ccc(C)cc54)no3)CC2)CC1 [Example 479, trifluoroacetate]", "measured.endpoint": "pIC50", "readout.value": 7.02}

# pIC50 lookup, item CC(=O)N1CC(CN2CCC(c3nc(-n4nc(C(C)C)c5ccccc54)no3)CC2)C1 [Example 467, trifluoroacetate]
7.09

Any idea what pIC50 was measured for CC(=O)N1CC(CN2CCC(c3nc(-n4nc(C(C)C)c5ccc(C)cc54)no3)CC2)C1 [Example 471, trifluoroacetate] ?
6.76

Field request: pIC50 | item: CCCCN1CCC(c2cnc(-n3nc(C(C)C)c4cccc(F)c43)s2)CC1 [Example 563]
6.65

Need pIC50, item CCc1nn(-c2noc(C3CCN(C4CCOCC4)CC3)n2)c2cc(C)ccc12 [Example 437, trifluoroacetate]
6.95

What value of measured pIC50 is listed for CCCCN1CCC(c2cnc(-n3nc(C(C)C)c4cccc(F)c43)[nH]2)CC1 [Example 562] ?
6.32

Could you tell me which pIC50 is on file for CC(C)c1nn(-c2noc(C3CCN(CCCOc4ccccc4)CC3)n2)c2c(F)cccc12 [Example 395] ?
7.57

###

# subject.of.test: human 5-HT4b receptor (Homo sapiens)
# Construct: expressed in transfected cells; host or cells: CHO cells (G418 selection)
# Sequence (Q13639 whole entry): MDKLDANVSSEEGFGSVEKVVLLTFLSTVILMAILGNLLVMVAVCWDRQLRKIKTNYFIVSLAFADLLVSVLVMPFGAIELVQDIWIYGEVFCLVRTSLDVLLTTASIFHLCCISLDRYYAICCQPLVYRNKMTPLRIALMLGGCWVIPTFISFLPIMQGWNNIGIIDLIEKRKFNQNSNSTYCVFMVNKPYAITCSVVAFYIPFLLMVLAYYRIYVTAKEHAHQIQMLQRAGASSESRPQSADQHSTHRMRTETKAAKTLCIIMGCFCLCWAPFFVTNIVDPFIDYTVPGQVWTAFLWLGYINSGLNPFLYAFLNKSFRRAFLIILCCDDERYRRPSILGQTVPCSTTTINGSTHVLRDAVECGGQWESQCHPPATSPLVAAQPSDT
# procedure.summary: Test Example 4: Serotonin 4 (5-HT4) receptor agonist activity assay, cAMP HTRF in CHO cells (Table 100)
# Type: cell-based
# assay.conditions: concentration showing 50% of IA; mean value
Counter-ions that a name gives are not always drawn.
measured.endpoint: log10(EC50) (log10 of the value in nM)
Please be aware that the numbers have been log10-transformed from EC50 in nM.

# count of solved cases: 6
{"compound": "CC(=O)N1CC[C@H](CN2CC[C@@H](Cc3nc(-n4nc(C(C)C)c5cccc(F)c54)no3)C2)C1", "subject.of.test": "human 5-HT4b receptor (Homo sapiens)", "log10(EC50)": 0.79}
{"compound": "CC(C)c1nn(-c2noc([C@H]3CC[C@@H](NCCC4CN(S(C)(=O)=O)C4)CC3)n2)c2c(F)cccc12", "subject.of.test": "human 5-HT4b receptor (Homo sapiens)", "log10(EC50)": 0.92}
{"compound": "CC(C)c1nn(-c2noc(C[C@@H]3CCN(C[C@H]4CCCN4S(C)(=O)=O)C3)n2)c2c(F)cccc12", "subject.of.test": "human 5-HT4b receptor (Homo sapiens)", "log10(EC50)": 0.63}
{"compound": "COCCN(C1CCOCC1)[C@H]1C[C@@H](c2nc(-n3nc(C(C)C)c4cccc(F)c43)no2)C1", "subject.of.test": "human 5-HT4b receptor (Homo sapiens)", "log10(EC50)": 1.04}
{"compound": "CCc1nn(-c2noc(C3CCN(C4CCOCC4)CC3)n2)c2c(F)c(F)ccc12 [Example 448, trifluoroacetate]", "subject.of.test": "human 5-HT4b receptor (Homo sapiens)", "log10(EC50)": 0.95}
{"compound": "CCc1nn(-c2noc(C3CCN(CC4CCOCC4)CC3)n2)c2c(F)c(F)ccc12 [Example 449, trifluoroacetate]", "subject.of.test": "human 5-HT4b receptor (Homo sapiens)", "log10(EC50)": 1.49}

Param item = `CC(C)c1nn(-c2noc(C3CCN(C4CCC4)CC3)n2)c2c(F)c(F)ccc12` ; retrieve measured log10(EC50).
1.14

###

# subject.of.test: 5-HT4 receptor (Cavia porcellus, UniProt O70528)
# Construct: striatum was isolated which was cryopreserved at −80° C. until use; from tissue; host or cells: guinea pig (Slc-Hartley) striatum membranes
# Sequence (O70528 whole entry): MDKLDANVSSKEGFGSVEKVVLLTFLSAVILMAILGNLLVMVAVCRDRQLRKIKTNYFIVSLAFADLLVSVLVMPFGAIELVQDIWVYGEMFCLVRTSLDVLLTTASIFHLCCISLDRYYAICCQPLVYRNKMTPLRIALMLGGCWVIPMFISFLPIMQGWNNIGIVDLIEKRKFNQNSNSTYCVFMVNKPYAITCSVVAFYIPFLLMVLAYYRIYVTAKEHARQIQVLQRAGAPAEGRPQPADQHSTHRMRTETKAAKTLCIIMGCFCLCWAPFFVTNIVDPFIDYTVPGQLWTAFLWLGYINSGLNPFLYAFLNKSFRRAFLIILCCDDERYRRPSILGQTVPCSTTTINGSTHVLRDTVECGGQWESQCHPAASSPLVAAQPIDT
# procedure.summary: Test Example 3: Guinea pig 5-HT4 receptor binding assay, [3H]-GR113808, striatum membranes (Table 98)
# assay.conditions: Guinea pig 5-HT4 receptor binding assay, [3H]-GR113808, striatum membranes; mean value of each group; read-out: IC50
Counter-ions that a name gives are not always drawn.
Entries annotated with measured pIC50
Note: pIC50 values are expressed as the negative base-10 logarithm of concentration in M.

Please review the following examples before continuing.
{"compound": "COc1ccc2c(C(C)C)nn(-c3noc(C4CCN(C5CCN(C(C)=O)CC5)CC4)n3)c2c1F [Example 404]", "readout.value": 7.00}
{"compound": "COC(=O)N1CCC(CN2CCC(c3nc(-n4nc(C(C)C)c5ccc(F)c(F)c54)no3)CC2)CC1 [Example 482, trifluoroacetate]", "readout.value": 7.63}
{"compound": "COc1cccc2c(C(C)C)nn(-c3noc(C4CCN(C5CCOCC5)CC4)n3)c12 [Example 441]", "readout.value": 7.11}

Look up pIC50: CC(C)c1nn(-c2noc(C3CCN(C4CCN(C(=O)CO)CC4)CC3)n2)c2c(F)ccc(O)c12 [Example 553]
7.73

###

# Test system: scopolamine-induced cognitive impairment
# procedure.summary: Example 5: Y-maze test, scopolamine-induced cognitive impairment, single-agent administration (Table 101)
# Format: in vivo, ddY mouse
# assay.conditions: compound 1 mg/kg, p.o., scopolamine-treated, # = P<0.05 vs scopolamine group
measured.endpoint: Alternation behavior (%)

Solved cases below.
{"molecular.string": "CC(C)c1nn(-c2noc(C3CCN(C4CCN(C(=O)CO)CC4)CC3)n2)c2c(F)cccc12", "Alternation behavior (%)": "63.4^# %"}
{"molecular.string": "CCc1nn(-c2noc(C3CCN(CC4CN(C(=O)OC)C4)CC3)n2)c2c(F)cccc12", "Alternation behavior (%)": "59.9%"}
{"molecular.string": "CC(=O)N1CCC(N2CCC(c3nc(-n4nc(C(C)C)c5cccc(F)c54)no3)CC2)CC1.Cl", "Alternation behavior (%)": "66.3^# %"}

# lookup: Alternation behavior (%) of `CCc1nn(-c2noc(C3CCN(C[C@H]4CCN(C(C)=O)C4)CC3)n2)c2cc(F)ccc12.Cl`
66.9^# %
